molecular target: HDAC1 enzyme (Homo sapiens, UniProt Q13547); construct: transducing full length HDAC1 and HDAC6 genes into Sf-9 insect cells; GST; purchased SignalChem; host or cells: Sf-9 insect cells; test: HDAC1 enzyme inhibitory assay (HDAC-Glo I/II Assay kit); format: biochemical; conditions: wells without enzyme = 100% inhibition, read-out: HDAC1 inhibitory rate (%) (1 μM)
Sequence (Q13547 whole entry): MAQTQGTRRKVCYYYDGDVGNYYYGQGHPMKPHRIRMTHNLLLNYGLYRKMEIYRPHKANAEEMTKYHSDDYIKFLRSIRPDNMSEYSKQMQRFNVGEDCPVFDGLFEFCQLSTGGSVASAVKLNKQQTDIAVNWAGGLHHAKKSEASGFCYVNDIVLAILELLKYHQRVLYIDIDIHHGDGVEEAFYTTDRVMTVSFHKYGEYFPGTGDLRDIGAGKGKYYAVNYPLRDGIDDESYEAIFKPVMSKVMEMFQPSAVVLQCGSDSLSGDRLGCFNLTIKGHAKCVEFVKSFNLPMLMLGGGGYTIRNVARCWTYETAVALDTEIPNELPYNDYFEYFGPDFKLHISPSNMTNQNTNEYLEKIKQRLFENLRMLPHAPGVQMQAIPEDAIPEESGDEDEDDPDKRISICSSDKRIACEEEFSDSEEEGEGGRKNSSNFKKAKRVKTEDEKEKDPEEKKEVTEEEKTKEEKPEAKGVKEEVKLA

compound | inhibition at 1 µM / %
Cn1ccnc1C(=O)NCC1CCCCN1C(=O)Nc1ccc(-c2noc(C(F)(F)F)n2)cc1 (stereo not drawn) | 47
O=C(NCC1CCCCN1C(=O)Nc1ccc(-c2noc(C(F)(F)F)n2)cc1)C1CCc2ccccc2O1 (stereo not drawn) | 57
Cc1ccnc(C(=O)NCC2CCCCN2C(=O)Nc2ccc(-c3noc(C(F)(F)F)n3)cc2)c1 (stereo not drawn) | 25
Cc1cccc(C(=O)NCC2CCCCN2C(=O)Nc2ccc(-c3noc(C(F)(F)F)n3)cc2)c1 (stereo not drawn) | 20
O=C(NCC1CCCCN1C(=O)Nc1ccc(-c2noc(C(F)(F)F)n2)cc1)c1cccc(C(F)(F)F)c1 (stereo not drawn) | 4
O=C(NCC1CCCCN1C(=O)Nc1ccc(-c2noc(C(F)(F)F)n2)cc1)c1csc(C(F)(F)F)n1 (stereo not drawn) | 20
Cc1cccc(C(=O)NCC2CCCCN2C(=O)Nc2ccc(-c3noc(C(F)(F)F)n3)cc2)n1 (stereo not drawn) | 31
CN1CCC(C(=O)NCC2CCCCN2C(=O)Nc2ccc(-c3noc(C(F)(F)F)n3)cc2)CC1 (stereo not drawn) | 27
O=C(NCC1CCCCN1C(=O)Nc1ccc(-c2noc(C(F)(F)F)n2)cc1)c1ccc(O)cc1 (stereo not drawn) | 37
Cn1nccc1C(=O)NC[C@H]1COCCN1C(=O)Nc1ccc(-c2noc(C(F)(F)F)n2)cc1 | 53
Cn1nc(C(=O)NCC2CCCCN2C(=O)Nc2ccc(-c3noc(C(F)(F)F)n3)cc2)c2ccccc21 (stereo not drawn) | 8
O=C(NCC1CCCCN1C(=O)Nc1ccc(-c2noc(C(F)(F)F)n2)cc1)c1cccc(Cl)c1Cl (stereo not drawn) | 4
COc1ccc(C(=O)NCC2CCCCN2C(=O)Nc2ccc(-c3noc(C(F)(F)F)n3)cc2)cc1 (stereo not drawn) | 12
O=C(NCC1CCCCN1C(=O)Nc1ccc(-c2noc(C(F)(F)F)n2)cc1)c1cccnc1 (stereo not drawn) | 58
Cc1ccc(C(=O)NCC2CCCCN2C(=O)Nc2ccc(-c3noc(C(F)(F)F)n3)cc2)cc1 (stereo not drawn) | -16
O=C(NCC1CCCCN1C(=O)Nc1ccc(-c2noc(C(F)(F)F)n2)cc1)c1cccs1 (stereo not drawn) | 37
O=C(CCc1ccccc1)NCC1CCCCN1C(=O)Nc1ccc(-c2noc(C(F)(F)F)n2)cc1 (stereo not drawn) | 68
O=C(NCC1CCCCN1C(=O)Nc1ccc(-c2noc(C(F)(F)F)n2)cc1)c1cc[n+]([O-])cc1 (stereo not drawn) | 2
O=C(NCC1CCCCN1C(=O)Nc1ccc(-c2noc(C(F)(F)F)n2)cc1)c1cccc(Cl)c1 (stereo not drawn) | -7
O=C(NCC1CCCCN1C(=O)Nc1ccc(-c2noc(C(F)(F)F)n2)cc1)c1ccccc1C(F)(F)F (stereo not drawn) | -2
O=C(NCC1CCCCN1C(=O)Nc1ccc(-c2noc(C(F)(F)F)n2)cc1)c1ccncc1 (stereo not drawn) | 63
O=C(NCC1CCCCN1C(=O)Nc1ccc(-c2noc(C(F)(F)F)n2)cc1)c1cccc(-c2ccccc2)c1 (stereo not drawn) | -8
N#Cc1cccc(C(=O)NCC2CCCCN2C(=O)Nc2ccc(-c3noc(C(F)(F)F)n3)cc2)c1 (stereo not drawn) | 32
O=C(NCC1CCCCN1C(=O)Nc1ccc(-c2noc(C(F)(F)F)n2)cc1)Nc1ccccc1 (stereo not drawn) | 17
O=C(Cc1cccs1)NCC1CCCCN1C(=O)Nc1ccc(-c2noc(C(F)(F)F)n2)cc1 (stereo not drawn) | 93
CN(C)c1ccc(C(=O)NCC2CCCCN2C(=O)Nc2ccc(-c3noc(C(F)(F)F)n3)cc2)cc1 (stereo not drawn) | 1
O=C(NCC1CCCCN1C(=O)Nc1ccc(-c2noc(C(F)(F)F)n2)cc1)c1ccc(F)cc1 (stereo not drawn) | 34
O=C(NCC1CCCCN1C(=O)Nc1ccc(-c2noc(C(F)(F)F)n2)cc1)c1cc2ccccc2o1 (stereo not drawn) | 3
O=C(NCC1CCCCN1C(=O)Nc1ccc(-c2noc(C(F)(F)F)n2)cc1)c1ccccc1F (stereo not drawn) | 44
O=C(NCC1CCCCN1C(=O)Nc1ccc(-c2noc(C(F)(F)F)n2)cc1)c1ccccn1 (stereo not drawn) | 28
